Each recorded value in this set is attributed to patent US20200246316A1.

method_summary: Dog single oral dose MTD study
Assay type: in vivo
condition_details: male, dog, plasma; 350 mg/kg PO (Dose 3; Day 9), 1 h, M, N = 2; read-out: Average Compound 1 Concentration in dog plasma
Where a name gives a salt, the structure may show the parent alone.
experimental_readout: concentration at 1 h (µg/mL)
Value expressed in µg/mL; do not type the unit.

(Q) GET /values?readout=concentration at 1 h&item= CC1(C)SC(Nc2ccccc2O)=N[C@@H]1C(=O)O [Compound 1, mono-hydrochloride]
(A) 220

---

method_summary: Rat 28-day GLP repeat dose PO study (toxicokinetics)
Type: in vivo
condition_details: male, rat, in vivo, po, 2000 mg/kg, Day 14, M, 2000 mg/kg PO; read-out: t1/2 (converted)
Where a name gives a salt, the structure may show the parent alone.
experimental_readout: half-life (h)
Output spec: scalar in h, unitless text.

(Q) Value lookup for half-life; key = CC1(C)SC(Nc2ccccc2O)=N[C@@H]1C(=O)O [Compound 1, mono-hydrochloride]
(A) 3.66
